// reported koff for each item listed
SYSTEM: T1, HSP70 (human HSP70; the antigen of the binning, humanization and variant binding assays) (human, UniProt P0DMV8 1-641, limits assumed)
T1 construct: also called hu HSP70
T1 sequence (P0DMV8 whole entry, change not shown): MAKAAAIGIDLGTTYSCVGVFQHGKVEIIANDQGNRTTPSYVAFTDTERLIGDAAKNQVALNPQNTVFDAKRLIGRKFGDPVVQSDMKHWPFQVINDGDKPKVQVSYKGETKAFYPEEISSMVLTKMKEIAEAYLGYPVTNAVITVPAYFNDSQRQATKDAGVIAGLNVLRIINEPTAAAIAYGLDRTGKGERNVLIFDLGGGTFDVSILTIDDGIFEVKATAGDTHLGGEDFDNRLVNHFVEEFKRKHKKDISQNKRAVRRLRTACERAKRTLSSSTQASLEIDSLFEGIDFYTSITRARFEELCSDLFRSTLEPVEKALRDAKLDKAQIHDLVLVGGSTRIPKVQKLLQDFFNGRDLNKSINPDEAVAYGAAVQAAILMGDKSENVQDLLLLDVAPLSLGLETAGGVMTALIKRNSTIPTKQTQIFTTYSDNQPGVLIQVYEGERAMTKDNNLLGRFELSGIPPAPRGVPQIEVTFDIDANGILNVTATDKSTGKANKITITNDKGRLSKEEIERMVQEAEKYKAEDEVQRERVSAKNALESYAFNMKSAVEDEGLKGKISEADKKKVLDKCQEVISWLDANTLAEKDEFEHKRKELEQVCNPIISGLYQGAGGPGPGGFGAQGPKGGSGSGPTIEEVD
EXPERIMENT SUMMARY: BLI, antibody on sensor

Query (binder): h77A-14 (antibody, V domains shown) VH: QVQLQQSGPEVKKPGASVKISCKTSGYTFTNYGMNWVRQAPGQGLEWMGWINTYTGEPTYADDFKGRVTMTTDTSTSTAYLELTGLMSDDTAVYFCARYDHAMDYWGQGTTVTVSS VL: DIQMTQSPSSLSASVGDRVTITCKSSQSLLNSGTRKNYLAWYQQKPGKVPKLLIYWTSTRESGVPSRFSGSGSGTDFTLTISSLQPEDVATYYCKQSYTLYTFGGGTKLEIK ; field requested: koff
0.000616 s⁻¹

Now look at this entry.
Query (binder): h77A-15 (antibody, V domains shown) VH: QVQLQQSGPEVKKPGASVKISCKTSGYTFTNYGMNWVRQAPGQGLEWMGWINTYTGEPTYADDFKGRVTMTTDTSTSTAYLELTGLMSDDTAVYFCARYDHAMDYWGQGTTVTVSS VL: DIVMTQSPDSLAVSLGERATINCKSSQSLLNSGTRKNYLAWYQQKPGQSPKLLIYWTSTRESGVPDRFSGSGSGTDFTLTISSLQAEDVAVYYCKQSYTLYTFGGGTKLEIK ; field requested: koff
0.000513 s⁻¹

Just for reference, patent US20250084155A1 is where these values come from.
